Data origin: patent US11028069B2

Please provide measured solubility, 1st fluid for dissolution test for the entries that follow.
- procedure.text: Solubility measurement, Japanese Pharmacopoeia Dissolution test
- Type: physicochemical
- study.conditions: Japanese Pharmacopoeia 1st fluid for dissolution test, crystals
Structures can show the parent of a compound that is named as a salt.
One number for each entry, in µg/mL.

[
  {
    "compound": "Cc1cc(Nc2nc(CC3(C(=O)O)CCN(C(=O)c4cccc(Cl)c4Cl)CC3)ccc2F)n[nH]1 [Mesylate salt]",
    "data.value": 490
  }
]

Query Cc1cc(Nc2nc(CC3(C(=O)O)CCN(C(=O)c4cccc(Cl)c4Cl)CC3)ccc2F)n[nH]1 [Free form] yields solubility, 1st fluid for dissolution test of 24
